The reported measurements were obtained from ChEMBL document CHEMBL4513216.

Give measured cytotoxicity at 10 µM for each item. Keep answers brief.
- method-description: Toxicity liver stage against HepG2, at 10uM
- Type: cell-based
- Set-up: test concentration 10 uM, cell line HepG2-A16-CD81EGFP
- details: human, HepG2-A16-CD81EGFP cells; read-out: INHIBITION
Numbers only, in %.

As a guide, the following entries are already answered.
get_value(item= N#Cc1ccc2c(c1)CN(C(=O)C1CC=CC1)C2c1cnco1 (stereo not drawn) , readout=cytotoxicity at 10 µM) returns -0.0499

Value of measured cytotoxicity at 10 µM for the entry CC(C)N1CCC(c2cnc(-c3cn[nH]c3)cn2)CC1 : 5.36

Reported cytotoxicity at 10 µM of COC(=O)CNC(=O)CCc1cc(Cl)cs1 : -5.31

Item: COCCn1cc(CC(=O)Nc2cc(C)n(C)n2)c2ccccc21 | cytotoxicity at 10 µM: -1.96

The reported value for CC(C)(C)CC(=O)Nc1cnn(-c2ccccc2S(C)(=O)=O)c1 in terms of cytotoxicity at 10 µM is 3.69

Look at each compound and report its cytotoxicity at 10 µM.
1. CCCN1CCC(NC(=O)c2csc(C)c2-c2ccc(C)cc2)CC1
2. O=C(CCc1cscn1)N1CCCC(n2ccnc2)C1 (stereo not drawn)
3. O=C(CN1CCOCC1CC(=O)c1ccco1)NCc1ccccn1 (stereo not drawn)
4. COc1ccccc1CC(C)(C)C(=O)NCC(=O)Nc1cccnc1
5. Cc1nc(C(C)(C)NC(=O)Nc2ccc(C#N)cc2)no1

// result
1. -4.14
2. -3.03
3. -4.92
4. 9.21
5. 13

Provide cytotoxicity at 10 µM for all items below, preserving their order.
1. O=C(C1=COCCO1)N1CC(Oc2nc3c(C(F)(F)F)cccc3s2)C1
2. Cn1cc(CN2CCc3onc(COc4cccnc4)c3C2)cn1
3. CN(C)c1ccc(C(=O)N2CCC(c3cc4ncccc4[nH]3)CC2)cc1

// result
1: 36; 2: 4.78; 3: -2.32

###

Could you please report measured cytotoxicity at 10 µM for the items listed next?
- method-description: Toxicity liver stage against HepG2, at 10uM
- Format: cell-based
- Set-up: test concentration 10 uM, cell line HepG2-A16-CD81EGFP
- details: human, HepG2-A16-CD81EGFP cells; read-out: INHIBITION
Numbers only, in %.

# annotated cases, reported cytotoxicity at 10 µM shown
Recorded cytotoxicity at 10 µM (compound Cc1nn(C)c2c(NCc3ccc(F)cc3)nc(C3CC3)nc12 ): 0.107

Record O=C(NCCO)C1(Cc2ccccc2-c2ccncc2)CCOCC1 . Reported cytotoxicity at 10 µM: 2.27

Lab note: measured cytotoxicity at 10 µM of CCS(=O)(=O)N1CCC2(CCN(Cc3ccc(C)o3)C2)C1 (centres undefined) was -116

Lab book: cytotoxicity at 10 µM of COc1ccc(CN2CCO[C@H]3[C@H](OCc4ccncc4)CC[C@@H]32)cc1 noted as -30.9

List the reported cytotoxicity at 10 µM of each compound below.
1. CCN(CC1CCOC1)S(=O)(=O)Cc1cc(Cl)ccc1OC (centres undefined)
2. CCc1nc(CN(C)C(=O)c2ccc(OCCCOC)nc2)cs1
3. CC(C)c1ncc(Cl)c(C(=O)N2CCN3CCCCC3C2)n1 (centres undefined)
4. Cc1n[nH]c(C2CN(CCNC3CCCCC3)CCO2)n1 (centres undefined)
5. O=C(C1CCCC1)N1CCC(c2ncc3c(n2)CCNC3)C1 (centres undefined)

// result
[3.1, -19.5, 4.77, -8.29, -15.3]
